# target.desc: Inactive JNK3α1, P53779
# test.details: FRET or BRET
quantity: IC50 (µM)
Numeric only. Scale: µM

{"binder": "RPKRPTTLNLF [pepJIPhu(157–167)]", "unit.of.measurement": "µM", "IC50": 1.7}

Incoming: Which value of IC50 has been reported for AVVRPGSLDLP [pepSABhu(40–350)] in the records?
Outgoing: 834

Sourced from paper PMC3589125
